- procedure-summary: chemical genetic growth profiling, strain panel (AID 1159580);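 also: tested at 20 µM; growth read once vehicle control cultures reached saturation at 30 °C; 1 = growth at the plate median or of vehicle wells; lower values mean less growth of the strain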
- test-settings: S. cerevisiae deletion strains, growth OD, locus YNL153C, strain GIM3, hits give low values
About 2,000 (36%) of roughly 5,500 compounds were called active. Another 18% or so got no clear call; they are omitted. The list shows a part of the results. Where a SMILES comes first, the peptide text is derived from it.
value-kind: normalized growth

INSERT INTO measurements (compound, value_kind, measured_value) VALUES
  ('CC(C)(C)NC(=S)NC1CCN(Cc2ccccc2)CC1', 'normalized growth', 1.01),
  ('NC(N)=NCCCCN=C(N)N', 'normalized growth', 0.978),
  ('CC1CCC(NC(=O)N(CCCl)N=O)CC1 (stereo not given)', 'normalized growth', 0.882),
  ('N[C@@H](C(=O)O)[C@@H](O)[C@H](O)[C@H](O)CO', 'normalized growth', 1.01),
  ('CCCCCCCCCCC/C=C\C(C)(C)/C=C\CCCC(=O)O', 'normalized growth', 0.967),
  ('C1N2CN3CN1CN(C2)C3', 'normalized growth', 0.968),
  ('CC(C)N(CCC(=O)c1ccc2ccccc2c1)Cc1ccccc1', 'normalized growth', 0.0944),
  ('O=C1CCCCC/C=C/CCCCCCCCO1', 'normalized growth', 0.972),
  ('C[C@]12CCC3c4ccc(OC(=O)c5ccccc5)cc4CCC3C1CCC2=O (stereo not given in full)', 'normalized growth', 1.02),
  ('CC[C@H](CO)Nc1nc(NCc2ccccc2)c2ncn(C(C)C)c2n1', 'normalized growth', 1),
  ('NC(CP(=O)(O)O)C(=O)O (stereo not given)', 'normalized growth', 1.04),
  ('CCOC(=O)C(c1ccccc1)C(Nc1ccc(Cl)c(Cl)c1)c1ccccn1 (stereo not given)', 'normalized growth', 1.01),
  ('C[C@]12CCC3c4ccc(OC(=O)CCC(=O)O)cc4CCC3C1CCC2=O (stereo not given in full)', 'normalized growth', 1),
  ('CC(=O)N[C@@H](CCC(=O)O)C(=O)O', 'normalized growth', 1.01),
  ('C[C@]12CCC3C(CC[C@H]4C[C@@H](O)CC[C@]34C)C1CC[C@@H]2O (stereo not given in full)', 'normalized growth', 1.03),
  ('c1ccc(-c2csc(-c3cccnc3)n2)cc1', 'normalized growth', 0.887),
  ('N[C@H](C(=O)O)[C@H](O)C(=O)O', 'normalized growth', 0.989),
  ('COc1cc2c(cc1OC)C1(O)C(=O)c3ccc(O)c(C(=O)O)c3OC1CO2 (stereo not given)', 'normalized growth', 0.991),
  ('CCC(C)C(=O)c1c(O)c(C)c2oc3c(C)c(O)c(C(=O)C(C)CC)c(O)c3c2c1O (stereo not given)', 'normalized growth', 0.928),
  ('O=[N+]([O-])c1ccc(C(O)C(O)CO)cc1 (stereo not given)', 'normalized growth', 0.987),
  ('COc1ccc2oc(-c3ccccc3)c(OC)c(=O)c2c1', 'normalized growth', 0.891),
  ('Brc1cccc(C=NCc2ccccc2)c1', 'normalized growth', 0.921),
  ('O=C1NN(c2ccccc2)C(=S)Nc2ccccc21', 'normalized growth', 0.978),
  ('CCOC(=O)c1cnn(-c2ccc(N)cc2)c1C(F)(F)F', 'normalized growth', 0.984),
  ('COC1=CC(=O)OC(CCc2ccc(OC)c(OC)c2)C1 (stereo not given)', 'normalized growth', 1.01),
  ('Fc1ccc([C@@H]2CCNC[C@H]2COc2ccc3c(c2)OCO3)cc1', 'normalized growth', 0.979),
  ('NCCC1CCCC(CCN)N1 (stereo not given)', 'normalized growth', 1.01),
  ('NC(=NCc1ccc(Cl)c(Cl)c1)NC(=O)c1nc(Cl)c(N)nc1N', 'normalized growth', 0.995),
  ('COC(=O)c1ccsc1N', 'normalized growth', 1),
  ('Nc1ncnc(SCc2ccc(Cl)cc2)n1', 'normalized growth', 1.01),
  ('CC(C)c1nc(N(C)S(C)(=O)=O)nc(-c2ccc(F)cc2)c1/C=C/[C@@H](O)C[C@@H](O)CC(=O)O', 'normalized growth', 0.989),
  ('O=S(=O)(NCc1ccc2c(c1)OCO2)c1ccc(F)c(Cl)c1', 'normalized growth', 0.971),
  ('Cc1onc2c(=O)n(-c3ccccc3)nc(-c3ccccc3)c12', 'normalized growth', 1),
  ('O=C1NC2(CCN(Cc3ccccc3)CC2)Oc2ccccc21', 'normalized growth', 0.997),
  ('CC(=O)N[C@@H](CC(=O)O)C(=O)N[C@@H](CCC(=O)O)C(=O)O (Ac-Asp-Glu-OH)', 'normalized growth', 1.01);

====

- procedure-summary: chemical genetic growth profiling, strain panel (AID 1159580);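 also: tested at 20 µM; growth read once vehicle control cultures reached saturation at 30 °C; 1 = growth at the plate median or of vehicle wells; lower values mean less growth of the strain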
- test-settings: S. cerevisiae deletion strains, growth OD, locus YLR058C, strain SHM2 (second series), hits give low values
The campaign covered roughly 5,500 compounds. About 2,000 (36%) were called active. Not shown: some 18% with an inconclusive outcome. The list shows a part of the results.
value-kind: normalized growth

INSERT INTO results (compound, measured_value) VALUES
  ('FC(F)(F)Oc1ccccc1-c1nnc(-c2ccc(Cl)cc2)o1', 0.95),
  ('CCOC(=O)c1cnn(-c2ccc(N)cc2)c1C(F)(F)F', 0.996),
  ('CCOC(=O)C(=CNNS(=O)(=O)c1cc(C(F)(F)F)cc(C(F)(F)F)c1)C(=O)OCC', 0.954),
  ('Cc1cc2c3c(c1)c(O)cc(=O)n3CCC2', 0.995),
  ('S=C1NC2(CCCCC2)NN1c1ccccc1', 0.98),
  ('O=[N+]([O-])c1ccc(C(O)C(O)CO)cc1 (stereo unspecified)', 0.988);

====

Listed here are molecules together with their documented normalized growth.
- procedure-summary: chemical genetic growth profiling, strain panel (AID 1159580);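 also: tested at 20 µM; growth read once vehicle control cultures reached saturation at 30 °C; 1 = growth at the plate median or of vehicle wells; lower values mean less growth of the strain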
- test-settings: S. cerevisiae deletion strains, growth OD, locus YMR231W, strain pep5, hits give low values
Out of some 5,500 compounds screened, about 2,000 (36%) were called active. About 18% were inconclusive and are not listed. The list shows a part of the results.
value-kind: normalized growth

INSERT INTO results (molecule, measured_value) VALUES
  ('NC1(C(=O)O)CCCC1', 1.02),
  ('NC1(C(=O)O)CC1', 1.03),
  ('CN(C/C=C/C#CC(C)(C)C)Cc1cccc2ccccc12', 0.188),
  ('COc1ccc(-c2oc3cc(OC)c(OC)c(OC)c3c(=O)c2OC)cc1', 1),
  ('CCCCC(=O)O[C@]1(C(=O)CO)CCC2C3CCC4=CC(=O)CC[C@]4(C)C3[C@@H](O)C[C@@]21C (some centres undefined)', 0.98),
  ('O=c1cccc2n1CC1CC2CN2CCCC[C@@H]12 (some centres undefined)', 0.98),
  ('c1ccc2c(CC3=NCCN3)cccc2c1', 0.981),
  ('C=CCS(=O)C[C@H](N)C(=O)O (some centres undefined)', 0.998),
  ('COc1ccc2oc3ccccc3c(=O)c2c1', 0.915);

====

- procedure-summary: chemical genetic growth profiling, strain panel (AID 1159580);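 also: tested at 20 µM; growth read once vehicle control cultures reached saturation at 30 °C; 1 = growth at the plate median or of vehicle wells; lower values mean less growth of the strain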
- test-settings: S. cerevisiae deletion strains, growth OD, locus YMR223W, strain ubp8, hits give low values
Among all 5,500 compounds or so, about 2,000 (36%) were called active. Not shown: some 18% with an inconclusive outcome. This is one part of the list.
value-kind: normalized growth

INSERT INTO assay_data (compound, value_kind, measured_value) VALUES
  ('c1ccc2c(CC3=NCCN3)cccc2c1', 'normalized growth', 1.01),
  ('CC(=O)Oc1ccc2c(c1)CCC1C2CC[C@]2(C)C(=O)CCC12 (stereo partly drawn)', 'normalized growth', 0.996),
  ('CC(C)/C(O)=C1/C(=O)O[C@@H](c2ccoc2)[C@]2(C)C(O)[C@@H](O)[C@@]34OC5(C)OC67CC(C)(C(O)[C@]6(O)[C@@H](O)[C@]3(O5)C12)[C@H](CC(=O)O)[C@]74C (stereo partly drawn)', 'normalized growth', 1.01),
  ('N[C@@H](C(=O)O)[C@@H](O)[C@H](O)[C@H](O)CO', 'normalized growth', 1.01),
  ('O=C1CCCCC/C=C/CCCCCCCCO1', 'normalized growth', 0.973),
  ('O=C(O)C(O)C(O)C(O)C(O)C(=O)O (stereo not drawn)', 'normalized growth', 1.01),
  ('NCCCCNCCCN', 'normalized growth', 1.03),
  ('C[C@]12CCC3c4ccc(OC(=O)CCC(=O)O)cc4CCC3C1CCC2=O (stereo partly drawn)', 'normalized growth', 0.914),
  ('CC12CCC3C(=CCc4cc(O)ccc43)C1CCC2=O (stereo not drawn)', 'normalized growth', 0.973),
  ('CC(=O)O[C@@H]1CC2C(C)(C)[C@H](O)CC[C@]2(C)C2CC[C@@]3(C)[C@H](c4ccoc4)OC(=O)C4OC43[C@@]21C (stereo partly drawn)', 'normalized growth', 0.995),
  ('NC(=O)NC1NC(=O)NC1=O (stereo not drawn)', 'normalized growth', 1),
  ('CCN1C[C@@]2(COC)C3[C@@H](OC)[C@H]4[C@@H]1[C@]3(C(OC)C[C@H]2O)C1C[C@@]2(O)[C@H](OC(=O)c3ccccc3)C1[C@]4(OC(C)=O)[C@@H](O)[C@@H]2OC (stereo partly drawn)', 'normalized growth', 1.02),
  ('COC1C=CC23c4cc5c(cc4CN(CC2O)[C@@H]3C1)OCO5 (stereo partly drawn)', 'normalized growth', 0.998);
